TESTED SYSTEM: AR(T877A) (Homo sapiens, UniProt P10275, T878A)
Construct: expressed in transfected cells; host or cells: HEK293
Sequence (P10275 whole entry T878A): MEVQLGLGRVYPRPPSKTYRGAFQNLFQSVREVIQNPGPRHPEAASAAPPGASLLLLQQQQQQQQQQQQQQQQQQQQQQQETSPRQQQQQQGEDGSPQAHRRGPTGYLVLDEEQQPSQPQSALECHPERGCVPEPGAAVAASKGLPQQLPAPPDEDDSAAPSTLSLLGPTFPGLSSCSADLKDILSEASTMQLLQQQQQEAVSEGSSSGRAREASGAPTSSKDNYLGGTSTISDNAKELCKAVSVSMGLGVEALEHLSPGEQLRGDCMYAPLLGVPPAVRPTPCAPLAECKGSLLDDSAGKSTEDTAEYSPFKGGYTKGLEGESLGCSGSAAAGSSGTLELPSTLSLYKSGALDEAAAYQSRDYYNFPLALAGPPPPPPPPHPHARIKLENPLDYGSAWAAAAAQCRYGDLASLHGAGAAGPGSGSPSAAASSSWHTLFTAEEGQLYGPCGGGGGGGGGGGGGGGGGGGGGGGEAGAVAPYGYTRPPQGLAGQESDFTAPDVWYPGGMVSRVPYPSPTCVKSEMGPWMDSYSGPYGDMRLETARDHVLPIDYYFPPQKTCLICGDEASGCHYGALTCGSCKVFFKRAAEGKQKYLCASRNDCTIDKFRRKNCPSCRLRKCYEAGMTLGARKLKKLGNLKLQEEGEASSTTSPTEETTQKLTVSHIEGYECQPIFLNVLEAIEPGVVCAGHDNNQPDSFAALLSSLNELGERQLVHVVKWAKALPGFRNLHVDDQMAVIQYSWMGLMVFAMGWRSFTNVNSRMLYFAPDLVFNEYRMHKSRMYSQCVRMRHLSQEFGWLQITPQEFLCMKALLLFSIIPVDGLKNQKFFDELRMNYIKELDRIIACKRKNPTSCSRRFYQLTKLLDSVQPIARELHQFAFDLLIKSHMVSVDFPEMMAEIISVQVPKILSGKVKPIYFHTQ
MEASUREMENT DESCRIPTION: Mutant AR antagonistic activity test, T877A (reporter gene in HEK293 cells)
Type: cell-based
STATED CONDITIONS: HEK293 cells, DHT 10 nM, 24 hours; read-out: T877A IC50(nM) 1st gen AR antagonist resistant mutation
Experimental: HEK293 cells were cultured in DMEM supplemented with 10% FBS and 1% GlutaMax at 37° C. with 5% CO2. The day before transfection, the medium was changed to DMEM containing 10% charcoal-stripped FBS and 1% GlutaMax. […] After 24 hours of incubation, 100 μL of Steady-Glo was added to the assay plate and read on an Envision reader. Data were determined and analyzed using GraphPad Prism.
MEASURED METRIC: IC50 (nM)
Please state the figure in nM; there is no need to write the unit.

1) Cc1cn(C2=CCC3C4CC=C5C[C@@H](NC(=O)c6ccncc6)CC[C@]5(C)C4CC[C@]23C)cn1 (stereo partly shown) : 209
2) Cc1cn(C2=CCC3C4CC=C5C[C@@H](NC(=O)c6ccc(F)cc6)CC[C@]5(C)C4CC[C@]23C)cn1 (stereo partly shown) : 79.8
3) Cc1cn(C2=CCC3C4CC=C5C[C@@H](NC(=O)c6ccc(F)cc6F)CC[C@]5(C)C4CC[C@]23C)cn1 (stereo partly shown) : 281

Next:
For Cc1cn(C2=CCC3C4CC=C5C[C@@H](NC(=O)c6ccc(S(C)(=O)=O)cc6)CC[C@]5(C)C4CC[C@]23C)cn1 (stereo partly shown) the compound record lists IC50 as 462
